ASSAY TARGET: EP3 membrane (EP3 receptor) (Homo sapiens)
Construct: purchased Millipore HTS092M
Sequence (P43115 whole entry): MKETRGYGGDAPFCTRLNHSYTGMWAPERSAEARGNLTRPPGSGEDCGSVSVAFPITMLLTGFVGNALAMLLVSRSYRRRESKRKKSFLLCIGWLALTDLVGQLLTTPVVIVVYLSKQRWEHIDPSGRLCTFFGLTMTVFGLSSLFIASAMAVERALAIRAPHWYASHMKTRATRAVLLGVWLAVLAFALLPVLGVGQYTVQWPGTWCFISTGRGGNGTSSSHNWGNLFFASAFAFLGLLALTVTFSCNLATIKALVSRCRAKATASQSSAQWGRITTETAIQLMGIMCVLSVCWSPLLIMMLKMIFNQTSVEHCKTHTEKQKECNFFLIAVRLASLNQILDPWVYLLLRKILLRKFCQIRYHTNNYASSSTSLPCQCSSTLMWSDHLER
ASSAY DETAILS: [3H]-PGE2 binding; EP3 competition binding (SPA)
pKi: −log10 of the molar value.
Each entry gets False if its pKi stays under 8, and True if its pKi is 8 or above.

>>> df
                                smiles_code                              assay_target  category
0  O=C(NC/C(F)=C1\CCCc2cnn(-c3ccc(C(F)(F)F)cc3)c21)NS(=O)(=O)c1ccc2c(c1)OCCO2  EP3 membrane (EP3 receptor) (Homo sapiens)     False
1  COc1ccc(Cl)c(S(=O)(=O)NC(=O)NC/C=C2\COCc3cnn(Cc4ccc(Cl)cc4Cl)c32)c1  EP3 membrane (EP3 receptor) (Homo sapiens)     False
2  O=C(NC/C=C1\CCCc2cnn(-c3ccc(-c4ccccc4)cc3)c21)NS(=O)(=O)c1cc(Cl)c(Cl)s1  EP3 membrane (EP3 receptor) (Homo sapiens)      True
3  Cc1cc(S(=O)(=O)NC(=O)NC/C(F)=C2\CCCc3[nH]nc(Cc4ccc(Cl)cc4Cl)c32)sc1Cl  EP3 membrane (EP3 receptor) (Homo sapiens)      True
4  CN(C/C(F)=C1\CCCc2cnn(Cc3ccc(Cl)cc3Cl)c21)C(=O)NS(=O)(=O)c1cc(Cl)c(Cl)s1  EP3 membrane (EP3 receptor) (Homo sapiens)      True
